Tested on: PPARg:RXRa (NR concentration 180 nM, RXRa partner concentration 90 nM)
assayDetails: PBM binding z-score (relative to random genomic background probes); higher = stronger binding; sequences stand for … in GC…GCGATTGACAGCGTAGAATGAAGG
Listed here are sequences together with their documented PBM binding z-score.
// no unit, no text: just the number

Task: Name the recorded PBM binding z-score of the sequence listed here: "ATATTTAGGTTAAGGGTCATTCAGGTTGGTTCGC"
Result: 11

Task: Note down PBM binding z-score recorded for "ACTTACGTGTCAACGAGGTTATAGCACGCGTATA"
Result: 0.927

Task: For the sequence "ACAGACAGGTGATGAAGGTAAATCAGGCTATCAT" , report PBM binding z-score.
Result: 0.707

Task: Specify measured PBM binding z-score for "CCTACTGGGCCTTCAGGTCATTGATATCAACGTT" .
Result: 0.682

Task: Please look at this sequence and report its PBM binding z-score: "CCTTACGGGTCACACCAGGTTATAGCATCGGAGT"
Result: 5.14

Task: Assign PBM binding z-score to the following record: "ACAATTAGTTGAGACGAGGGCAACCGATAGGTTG"
Result: 0.794
